Could you please report measured shrunken log2 fold change for the items listed next?
# System: Escherichia coli TOP10
# protocol-summary: shrunken log2 fold change of peptide-encoding DNA abundance (4.5 h post-induction vs induction); higher = less antimicrobial activity (less host growth inhibition)
# condition-context: time post-induction: 4.5 h; library: site-saturation at positions 5, 18, 19, 20
Just the number, please, no unit attached.

Record RRIRKRPPRLPRPRPRPRDNPRP : what is its shrunken log2 fold change with Escherichia coli TOP10? 0.15

Record RRIRERPPRLPRPRPRPCCKPRP : what is its shrunken log2 fold change with Escherichia coli TOP10? -0.267

Record RRIRTRPPRLPRPRPRPKFEPRP : what is its shrunken log2 fold change with Escherichia coli TOP10? 0.0721

Record RRIRHRPPRLPRPRPRPSKRPRP : what is its shrunken log2 fold change with Escherichia coli TOP10? 0.0594

Record RRIRVRPPRLPRPRPRPTAIPRP : what is its shrunken log2 fold change with Escherichia coli TOP10? 0.12

Record RRIRHRPPRLPRPRPRPWTFPRP : what is its shrunken log2 fold change with Escherichia coli TOP10? -0.229

Record RRIRRRPPRLPRPRPRPGLPPRP : what is its shrunken log2 fold change with Escherichia coli TOP10? 0.33

Record RRIRRRPPRLPRPRPRPSFDPRP : what is its shrunken log2 fold change with Escherichia coli TOP10? 0.135

----------
# Test system: Escherichia coli TOP10;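 also: peptides expressed intracellularly from a pBAD plasmid library in pooled LB shake-flask culture, induced with 0.3% L-arabinose, DNA abundance read by NGS, three biological replicates, DESeq2 with apeglm shrinkage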
# protocol-summary: shrunken log2 fold change of peptide-encoding DNA abundance (4.5 h post-induction vs induction); higher = less antimicrobial activity (less host growth inhibition)
# condition-context: time post-induction: 4.5 h; library: site-saturation at positions 5, 18, 19, 20
result-type: shrunken log2 fold change

So what's the measured shrunken log2 fold change for this one? RRIRSRPPRLPRPRPRPFPAPRP 0.0186

So what's the measured shrunken log2 fold change for this one? RRIRWRPPRLPRPRPRPVPAPRP 0.532

So what's the measured shrunken log2 fold change for this one? RRIRKRPPRLPRPRPRPACNPRP -0.0224

So what's the measured shrunken log2 fold change for this one? RRIRNRPPRLPRPRPRPVDLPRP -0.21

So what's the measured shrunken log2 fold change for this one? RRIRTRPPRLPRPRPRPTNSPRP -0.334

So what's the measured shrunken log2 fold change for this one? RRIRTRPPRLPRPRPRPLKVPRP -0.221

So what's the measured shrunken log2 fold change for this one? RRIRWRPPRLPRPRPRPPLAPRP 1.63

So what's the measured shrunken log2 fold change for this one? RRIRVRPPRLPRPRPRPGNPPRP -0.104

So what's the measured shrunken log2 fold change for this one? RRIRARPPRLPRPRPRPLDIPRP 0.0659

So what's the measured shrunken log2 fold change for this one? RRIRKRPPRLPRPRPRPVWDPRP 2.04

So what's the measured shrunken log2 fold change for this one? RRIRWRPPRLPRPRPRPHEYPRP -0.147

So what's the measured shrunken log2 fold change for this one? RRIRYRPPRLPRPRPRPKIQPRP -0.68

So what's the measured shrunken log2 fold change for this one? RRIRMRPPRLPRPRPRPECHPRP -0.0482

So what's the measured shrunken log2 fold change for this one? RRIRRRPPRLPRPRPRPMKAPRP 0.0483

So what's the measured shrunken log2 fold change for this one? RRIRTRPPRLPRPRPRPKYLPRP -0.0222

Where do the numbers come from? From the supplement of paper PMC9112550.
